- Organism: Rattus norvegicus
- assay.name: Open TG-GATES - Regimen: Single
- Assay type: toxicity, organism-based, Sprague-Dawley
- Set-up: regimen Single, gender Male, age 6 weeks
- conditions.used: in vivo, po, 300 mg/kg, 6 h, tissue Blood, route gavage, dose level Middle
measured.endpoint: MCHC (%)

compound	result.units	experimental.value
O=C(O)c1cn(C2CC2)c2cc(N3CCNCC3)c(F)cc2c1=O	%	33
CCc1cc(C(N)=S)ccn1 [ETHIONAMIDE]	%	33.6
C[C@H](CS)C(=O)N1CCC[C@H]1C(=O)O	%	33
O=C(O)c1cc(/N=N/c2ccc(S(=O)(=O)Nc3ccccn3)cc2)ccc1O	%	34
Clc1ccccc1CN1CCc2sccc2C1	%	34.5
